test system: Collectotrichum graminicola (Cg); test: In vitro pathogen growth inhibition assay, Cg; format: cell-based; settings: 48 h, ≥90% growth inhibition; 48 hours; vs 2% DMSO control; read-out: Compound Concentration (ppm) sufficient for ≥90% inhibition of Cg
For each record, write down the corresponding IC90.
Lab book: enter the figure in µg/mL, no units written.

## Input Name the recorded IC90 of CCc1ccc(F)cc1CCn1c(=O)n(C(C)(C)C(=O)NC(C)C)c(=O)c2c(C)c(-n3nccn3)sc21 [Compound I-326] , assay system Collectotrichum graminicola (Cg).
## Output 2

## Input Name the recorded IC90 of CCNC(=O)C(C)(C)n1c(=O)c2c(C)c(C(=O)OCC)sc2n(C[C@H](OCCC#N)c2cc(F)ccc2OC)c1=O [Compound I-231] , assay system Collectotrichum graminicola (Cg).
## Output 0.4

## Input Name the recorded IC90 of COc1ccccc1CCn1c(=O)n(C(C)(C)C(=O)NC(C)C)c(=O)c2c(C)c(-n3nccn3)sc21 [Compound I-294] , assay system Collectotrichum graminicola (Cg).
## Output 10

## Input Name the recorded IC90 of COCCO[C@@H](Cn1c(=O)n([C@@H](C)C(=O)NC(C)C)c(=O)c2c(C)c(-n3nccn3)sc21)c1cc(F)ccc1OC [Compound I-172] , assay system Collectotrichum graminicola (Cg).
## Output 50
